# Plant Response Index (J) values compiled below
# System: Downy Brome
# test.summary: post-emergence herbicidal activity, greenhouse
# Type: in vivo
# cond: Table III; 2 WAT; 5.6 kg/h

Take a look at these entries with their results.
INSERT INTO measurements (compound, reading) VALUES
  ('CC(C)(C)[Si](C)(C)OP(=O)(CNCC(=O)OCCc1ccccc1)O[Si](C)(C)C(C)(C)C [Ex. 10, Hydrate]', '1 (25-49% inhibition)'),
  ('CCCCOC(=O)CNCP(=O)(O)O[Si](c1ccccc1)(c1ccccc1)C(C)(C)C [Ex. 6]', '1 (25-49% inhibition)'),
  ('CCOC(=O)CNCP(=O)(O)O[Si](c1ccccc1)(c1ccccc1)C(C)(C)C [Ex. 7]', '2 (50-74% inhibition)'),
  ('CC(C)OC(=O)CNCP(=O)(O[Si](c1ccccc1)(c1ccccc1)C(C)(C)C)O[Si](c1ccccc1)(c1ccccc1)C(C)(C)C [Ex. 1]', '3 (75-99% inhibition)');

Proceed to the following item.
Hey, Downy Brome data for CC(C)OC(=O)CNCP(=O)(O)O[Si](c1ccccc1)(c1ccccc1)C(C)(C)C [Ex. 2] : Plant Response Index (J) came out at 3 (75-99% inhibition)
